Collected IC50 for Tyrosine-protein phosphatase non-receptor type 1 (Homo sapiens, UniProt P18031) across several studies; compounds listed below.
QUANTITY MEASURED: IC50 (µM)

# SMILES INPUT, SYSTEM UNDER TEST, IC50, µM
rows = [
    ("O=C(Nc1ccccc1)c1ccc(-c2ccc(C(=O)Nc3ccccc3)o2)cc1", "Tyrosine-protein phosphatase non-receptor type 1 (Homo sapiens, UniProt P18031)", 3.48),
]

P. CC(C)=CCc1c(O)ccc2c1O/C(=C\c1ccc(O)c(O)c1)C2=O
Q. O=Cc1coc2ccc(-c3ccccc3)cc2c1=O
Just curious, which one has the larger IC50 reading, P or Q ? Your answer should be the label of the entry you select. P
(P: 23.9 µM, Q: 14 µM)
